Test: osmotic lysis modulators in infected erythrocytes, primary screen, PSAC antagonist project, cell-based, P. falciparum Indochina, OD700, 3 h (AID 1156)
Details: higher = more signal, called active from +8 up or from −8 down
// bucketize z-score: L = under -0.06, M = from -0.06 up to 0.7, H = 0.7 and over

# Compound, Discrete label
data = [
    ("CO[C@@H]1COC(=O)CC=C[C@@H](C)[C@@H]2C=C[C@H](O)[C@@H](COC(=O)CCC[C@H]1C)O2", "L"),
]

Moving on to the next compound.
QUERY: Just checking, what class would you give CO[C@@H]1COC(=O)CC=C[C@@H](C)[C@H](OC)COC(=O)[C@H](COCc2ccccc2)NC(=O)CC=C[C@H]1C here?
RESULT: M

----------
Assay: P. aeruginosa biofilm formation inhibitors, primary screen, strain PAO1, LB-PBS medium, absorbance 600 nm (AID 1176); further: test concentration not given here
Conditions: P. aeruginosa PAO1 growth/biofilm, A600, 12 h; higher = more signal
# maps each entry to its z-score
The reply should be a number, written without any unit.

Please review the following examples before continuing.
# Compound, Quantity, Val
rows = [
    ("CO[C@H]1COC(=O)[C@@H]2CCCN2C(=O)[C@@H](C)COC(=O)CC=C[C@@H]1C", "z-score", -0.725),
    ("COC(=O)C1(C)C=C2C(=C(c3ccccc3)C(=O)C2C)CN1 (stereo unspecified)", "z-score", 1.38),
    ("CCCCC(=C=CC[C@H](O)c1ccccc1OCCO)C[C@H](O)COCc1ccccc1", "z-score", 0.637),
]

QUERY: What does the data say about its z-score? Entry: CCN1C(=O)[C@H]2[C@H]3[C@H](O)[C@H](O)CC(=NOCC=C(C)CCC=C(C)C)[C@H]3CC[C@H]2C1=O
RESULT: 0.164

----------
Biological target: Neurogenic locus notch homolog protein 2 (Homo sapiens) (UniProt Q04721)
Sequence (Q04721 whole entry, looked up): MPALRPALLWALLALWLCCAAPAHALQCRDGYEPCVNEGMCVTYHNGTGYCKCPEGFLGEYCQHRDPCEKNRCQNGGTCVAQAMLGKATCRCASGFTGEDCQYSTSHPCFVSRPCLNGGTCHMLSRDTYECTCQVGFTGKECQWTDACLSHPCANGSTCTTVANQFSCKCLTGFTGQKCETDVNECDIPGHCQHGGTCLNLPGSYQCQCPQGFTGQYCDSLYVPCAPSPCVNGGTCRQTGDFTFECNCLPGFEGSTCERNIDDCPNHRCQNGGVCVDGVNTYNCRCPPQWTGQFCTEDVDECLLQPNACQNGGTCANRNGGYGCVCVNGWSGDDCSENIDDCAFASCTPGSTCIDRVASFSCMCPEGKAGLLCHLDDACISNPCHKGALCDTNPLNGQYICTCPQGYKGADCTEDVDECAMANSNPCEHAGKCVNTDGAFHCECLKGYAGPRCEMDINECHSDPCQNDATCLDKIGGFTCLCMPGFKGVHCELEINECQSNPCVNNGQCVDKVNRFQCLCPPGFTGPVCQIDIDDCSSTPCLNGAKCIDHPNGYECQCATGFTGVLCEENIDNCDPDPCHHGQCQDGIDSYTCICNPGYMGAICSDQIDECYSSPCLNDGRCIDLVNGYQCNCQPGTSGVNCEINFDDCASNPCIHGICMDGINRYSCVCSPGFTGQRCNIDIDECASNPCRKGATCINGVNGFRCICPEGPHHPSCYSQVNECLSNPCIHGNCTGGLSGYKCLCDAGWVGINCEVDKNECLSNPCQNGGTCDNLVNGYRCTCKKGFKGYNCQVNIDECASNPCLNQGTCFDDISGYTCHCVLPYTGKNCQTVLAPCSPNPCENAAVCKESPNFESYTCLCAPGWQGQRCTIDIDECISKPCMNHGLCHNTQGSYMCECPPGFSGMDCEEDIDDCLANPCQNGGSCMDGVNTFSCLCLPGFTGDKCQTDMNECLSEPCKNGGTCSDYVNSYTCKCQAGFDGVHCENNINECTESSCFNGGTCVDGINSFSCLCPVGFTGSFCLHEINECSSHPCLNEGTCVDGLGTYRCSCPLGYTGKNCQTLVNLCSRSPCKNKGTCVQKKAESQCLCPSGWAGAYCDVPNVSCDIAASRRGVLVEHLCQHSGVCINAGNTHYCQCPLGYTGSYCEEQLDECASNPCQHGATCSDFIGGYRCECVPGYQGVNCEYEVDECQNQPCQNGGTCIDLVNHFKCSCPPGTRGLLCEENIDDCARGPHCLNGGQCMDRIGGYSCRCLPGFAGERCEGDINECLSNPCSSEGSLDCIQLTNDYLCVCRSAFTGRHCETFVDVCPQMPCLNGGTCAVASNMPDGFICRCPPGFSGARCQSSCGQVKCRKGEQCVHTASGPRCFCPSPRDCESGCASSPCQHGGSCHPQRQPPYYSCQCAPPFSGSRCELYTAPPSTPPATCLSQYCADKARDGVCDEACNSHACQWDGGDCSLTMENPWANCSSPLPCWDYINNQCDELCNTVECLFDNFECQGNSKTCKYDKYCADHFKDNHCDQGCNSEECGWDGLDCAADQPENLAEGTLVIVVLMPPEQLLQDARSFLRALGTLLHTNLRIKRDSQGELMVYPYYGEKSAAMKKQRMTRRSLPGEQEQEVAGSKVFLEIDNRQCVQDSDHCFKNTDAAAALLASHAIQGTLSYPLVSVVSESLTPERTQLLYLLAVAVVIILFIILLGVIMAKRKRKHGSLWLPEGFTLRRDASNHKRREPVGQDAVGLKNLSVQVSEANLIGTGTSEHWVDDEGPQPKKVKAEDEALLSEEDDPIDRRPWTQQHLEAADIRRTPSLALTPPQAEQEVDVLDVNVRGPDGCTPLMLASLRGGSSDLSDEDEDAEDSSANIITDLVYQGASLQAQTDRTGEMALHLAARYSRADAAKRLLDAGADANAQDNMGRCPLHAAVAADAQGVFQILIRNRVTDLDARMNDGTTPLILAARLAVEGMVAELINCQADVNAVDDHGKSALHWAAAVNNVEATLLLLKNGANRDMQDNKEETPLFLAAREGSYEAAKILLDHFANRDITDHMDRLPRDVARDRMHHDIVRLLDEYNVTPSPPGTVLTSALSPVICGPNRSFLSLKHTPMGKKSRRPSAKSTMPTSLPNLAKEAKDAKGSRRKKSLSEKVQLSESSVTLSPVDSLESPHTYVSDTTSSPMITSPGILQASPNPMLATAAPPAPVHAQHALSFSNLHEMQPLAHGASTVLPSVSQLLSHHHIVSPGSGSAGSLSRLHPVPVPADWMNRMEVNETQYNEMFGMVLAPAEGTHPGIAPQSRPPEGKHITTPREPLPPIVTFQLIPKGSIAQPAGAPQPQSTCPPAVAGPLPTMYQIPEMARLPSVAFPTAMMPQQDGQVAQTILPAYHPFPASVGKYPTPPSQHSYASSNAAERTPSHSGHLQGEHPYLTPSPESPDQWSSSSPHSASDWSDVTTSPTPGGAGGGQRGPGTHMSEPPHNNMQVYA
Assay: Notch2 binders on small-molecule microarrays, primary screen, biochemical, small-molecule microarray, 635 nm fluorescence, stem cell growth factors (AID 1073)
Conditions: Notch2 binding, higher = more signal
# maps each entry to its composite z-score
The reply should be a number, written without any unit.

Please review the following examples before continuing.
# Compound, Target of assay, composite z-score
rows = [
    ("Cn1c(=O)n2n(c1=O)[C@H]1[C@H](O)[C@@H]3O[C@@H]3C(=NOC[C@@H](O)COCc3ccco3)[C@H]1CC2", "Neurogenic locus notch homolog protein 2 (Homo sapiens) (UniProt Q04721)", 0.515),
    ("C/C=C\\[C@@H](NCc1ccccc1Br)[C@@H](O)Cc1ccccc1", "Neurogenic locus notch homolog protein 2 (Homo sapiens) (UniProt Q04721)", -1.46),
    ("Cc1cc2c(nc1C)CCCN2CC(C)ON=C1[C@H]2CCn3c(=O)n(-c4ccccc4)c(=O)n3[C@H]2[C@H](O)[C@@H]2O[C@H]12 (stereo not given in full)", "Neurogenic locus notch homolog protein 2 (Homo sapiens) (UniProt Q04721)", 0.36),
    ("O=C1CCCC2OC12C(O)CCc1ccccc1 (stereo not given)", "Neurogenic locus notch homolog protein 2 (Homo sapiens) (UniProt Q04721)", 0.455),
]

QUERY: What does the data say about its composite z-score? Entry: COCCOC(=O)N1C(=O)[C@@]2(c3cc(C#CCNC(N)=O)ccc31)[C@H](c1ccccc1OCCO)N1[C@H](c3ccccc3)[C@H](c3ccccc3)OC(=O)[C@H]1[C@@H]2C(=O)N1CCN(c2ncccn2)CC1
RESULT: 1.27

----------
# maps each entry to its z-score
Test: basal RPMI8226 viability, no added stimulus, profiling panel, cell-based, calcein-AM fluorescence, 48 h, PK04 Diversity Set (AID 1166);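 further: cells grown under basal conditions without added stimulus; test concentration not given here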
Conditions: RPMI8226 myeloma viability, higher = more signal
The reply should be a number, written without any unit.

Please review the following examples before continuing.
# Chemical string, z-score
data = [
    ("CCN1C(=O)[C@H]2[C@H]3[C@H](O)[C@H](O)CC(=NOCc4ccccc4)[C@H]3CC[C@H]2C1=O", -0.644),
    ("COC(=O)[C@@]1(Cc2ccc(F)cc2)[C@H]2c3cc(C(=O)N(C)C)n(Cc4ccc(OC)c(OC)c4)c3C[C@H]2CN1C(=O)c1ccccc1", -2.04),
]

QUERY: What does the data say about its z-score? Entry: CCCCC(=C=CC[C@H](O)c1ccccc1OCCO)C[C@H](O)COCc1ccccc1
RESULT: -1.29

QUERY: Again, but for O=C1[C@H]2[C@H]3[C@H](O)[C@H](O)CC(=NO[C@@H]4O[C@H](CO)[C@@H](O)[C@H](O)[C@H]4O)[C@@H]3CC[C@H]2C(=O)N1c1ccc(F)cc1F
RESULT: -0.165

QUERY: Again, but for CCCC[C@H]1OB(O)C[C@H]2C1=C(C)C[C@H]1C(=O)N(C)C(=O)[C@H]12
RESULT: -0.848

QUERY: Again, but for O=C1[C@H]2[C@H]3[C@H](O)[C@H](O)CC(=NO[C@@H]4O[C@H](CO)[C@@H](O)[C@H](O)[C@H]4O)[C@H]3CC[C@H]2C(=O)N1C1CCCCC1
RESULT: 0.115

QUERY: Again, but for COCCOC(=O)N1C(=O)[C@@]2(c3cc(C#CC4(O)CCCCCC4)ccc31)[C@H](c1ccc(OCCO)cc1)N1[C@H](c3ccccc3)[C@H](c3ccccc3)OC(=O)[C@H]1[C@@H]2C(=O)NC[C@H](O)c1ccccc1
RESULT: -1.84

----------
Target: Torsin-1A (Homo sapiens) (UniProt O14656)
Sequence (O14656 whole entry, looked up): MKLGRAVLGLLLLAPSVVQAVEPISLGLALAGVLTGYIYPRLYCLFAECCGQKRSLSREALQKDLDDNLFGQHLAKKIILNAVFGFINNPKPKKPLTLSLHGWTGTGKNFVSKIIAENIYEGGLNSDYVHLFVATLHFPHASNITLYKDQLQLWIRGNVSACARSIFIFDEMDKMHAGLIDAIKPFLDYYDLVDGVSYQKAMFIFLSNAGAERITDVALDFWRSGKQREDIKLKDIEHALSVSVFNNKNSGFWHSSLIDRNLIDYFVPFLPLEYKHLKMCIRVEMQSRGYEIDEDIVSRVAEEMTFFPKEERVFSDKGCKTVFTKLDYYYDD
Test: torsin A binders from cell lysate, primary screen, small-molecule microarray, wild-type, 635/667 nm (AID 1149)
Settings: COS7 hTOR1A-WT lysate, 635 nm fluorescence, higher = more signal
Quantity: composite z-score

Please review the following examples before continuing.
# Molecule, Val
records = [
    ("CN(C)CCCNC(=O)[C@@H]1c2ccccc2C(=O)N(Cc2cc(F)cc(C(F)(F)F)c2)[C@H]1c1ccc(CO)cc1", 0.65),
    ("O=C1[C@H]2[C@H]3[C@H](O)[C@H](O)CC(=NO[C@@H]4O[C@H](CO)[C@@H](O)[C@H](O)[C@H]4O)[C@H]3CC[C@H]2C(=O)N1Cc1ccccc1", 0.717),
    ("COc1ccc(CCNC(=O)[C@@H]2c3ccccc3C(=O)N(c3ccc(C)cn3)[C@H]2c2ccc(CO)cc2)cc1", -2.23),
]

QUERY: Kindly state the measured composite z-score obtained for CN1C(=O)C2C=CC(C(O)c3ccc(Br)cc3)N(N(c3ccccc3)c3ccccc3)C2C1=O (centres undefined) with Torsin-1A (Homo sapiens) (UniProt O14656).
RESULT: 0.293

----------
Biological target: Dickkopf-related protein 1 (Homo sapiens)
Experiment: DKK1 binders on small-molecule microarrays, primary screen, biochemical, small-molecule microarray, 635 nm fluorescence scan (AID 1106);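 further: score merges emission near 667 nm with signal to noise over three replicate slides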
Details: DKK1 binding, higher = more signal
# maps each entry to its composite z-score
The reply should be a number, written without any unit.

Please review the following examples before continuing.
# Compound, Target of assay, composite z-score
data = [
    ("O=C1[C@H]2[C@H]3[C@H](O)[C@H](O)CC(=NO[C@@H]4O[C@H](CO)[C@@H](O)[C@H](O)[C@H]4O)[C@H]3CC[C@H]2C(=O)N1C1CCCCC1", "Dickkopf-related protein 1 (Homo sapiens)", -0.191),
    ("COC(=O)[C@@]1(Cc2ccc(F)cc2)[C@@H]2C(=CC(=O)[C@H]2CC(=O)C(=O)N(C)C)CN1C(=O)c1ccccc1", "Dickkopf-related protein 1 (Homo sapiens)", -0.251),
]

QUERY: What does the data say about its composite z-score? Entry: CC(=O)O[C@H]1C2=C(C(=O)[C@@H]3O[C@@H]31)[C@H]1C(C)O[C@@H]2[C@@]23C(=O)[C@@H]4O[C@@H]4[C@@H](O)C2=CO[C@H](C)[C@@H]13 (stereo partly drawn)
RESULT: 0.326

----------
# maps each entry to its composite z-score
Test: binders from COS7 lysate, DM2A8 probe, primary screen, torsin A project, cell lysate, small-molecule microarray, fluorescence 635/667 (AID 1065)
Conditions: higher = more signal, COS7 lysate expressing mutant human TOR1A
The reply should be a number, written without any unit.

Please review the following examples before continuing.
# Compound, Quantity, Val
records = [
    ("CN1C(=O)C2C=CC(C(O)c3ccc(I)cc3)N(NC(=O)OC(C)(C)C)C2C1=O (stereo not given)", "composite z-score", -0.0004),
    ("CC(=O)OC[C@H]1O[C@H](CCON=C(C)CCC(=O)OC[C@H]2O[C@H](C#Cc3ccccc3)C=C[C@@H]2Oc2ccc(C)cc2)C=C[C@@H]1OC(C)=O", "composite z-score", 0.703),
    ("C=COC[C@H]1CN2[C@@H](CC[C@@H](C)[C@@H]2c2ccc(Br)cc2)C(=O)O1", "composite z-score", 0.268),
    ("CCCNC(=O)OC[C@H]1O[C@H](CCON=CC[C@@H]2C=C[C@H](OC(C)=O)[C@@H](COC(C)=O)O2)C=C[C@@H]1Oc1ccc(OC)cc1", "composite z-score", 0.453),
]

Let us move to another entry and its composite z-score.
QUERY: What does the data say about its composite z-score? Entry: COC(=O)CC1OC1[C@H](C)[C@@H](OC)C(C)C (stereo not given in full)
RESULT: -0.0917

Values compiled from PubChem BioAssay.
